Test system: Proteus rettgeri

>  <MOLECULE>
Nc1c(F)c(N2CCNC(=O)CC2)c(Cl)c2c1c(=O)c(C(=O)O)cn2C1CC1 [1-10]

>  <MIC [µg/mL]>
0.78

$$$$
>  <MOLECULE>
C[C@@H]1CN(c2c(F)c(N)c3c(=O)c(C(=O)O)cn(C4CC4)c3c2F)C[C@H](C)N1 [Spafloxacin, reference compound]

>  <MIC [µg/mL]>
0.1

$$$$
>  <MOLECULE>
Nc1c(F)c(N2CCNC(=O)CC2)c(F)c2c1c(=O)c(C(=O)O)cn2C1CC1 [Compound No. 1-2]

>  <MIC [µg/mL]>
0.39

$$$$
>  <MOLECULE>
CN1CCN(c2c(F)c(N)c3c(=O)c(C(=O)O)cn(C4CC4)c3c2F)CCC1=O [1-8]

>  <MIC [µg/mL]>
0.39

$$$$

Values compiled from patent US5430028A.
